Kindly state melting point for each of the entries shown.

Prompt: Requested field: melting point. Item: CN(C=O)C1CCC(=O)c2ccccc21 (single isomer, unassigned; (+))
Response: 92 to 93 °C

Prompt: Follow-up entry: "O=C(O)c1cc(Cl)ccc1COc1ccccc1"
Response: 149 to 155 °C

Prompt: Follow-up entry: "COC[C@@H](C)N1Cc2c(ccc(Cl)c2NC(=O)c2ccc(F)c(C(F)(F)F)c2)C1=O"
Response: 131 to 132 °C

Prompt: Follow-up entry: "COCC(=O)Nc1nc2c(C)cccc2s1"
Response: 110 to 111 °C

Prompt: Follow-up entry: "[N-]=[N+]=NCCO/N=C(\C(=O)O)c1csc(N)n1"
Response: 180 °C

Prompt: Follow-up entry: "Cc1cccc(CC(=O)Nc2cc(Cl)c(Cl)cc2[N+](=O)[O-])c1"
Response: 122 to 124 °C

Prompt: Follow-up entry: "CS(=O)(=O)OCC1(c2ccccc2)CCCC1"
Response: 55 to 60 °C

Prompt: Follow-up entry: "CCNC(=O)c1c(Br)csc1[Si](C)(C)C"
Response: 93 to 96 °C

Prompt: Follow-up entry: "Cn1ncc2nn(-c3cc(C(F)(F)F)ccc3F)c(=O)c(Cl)c21"
Response: 177 to 182 °C

Prompt: Follow-up entry: "CCCOC(=O)C1=C(C)NC(C)=C(C(=O)N[C@H](C(=O)OCC)C(C)C)[C@@H]1c1cccc([N+](=O)[O-])c1"
Response: 119 to 121 °C

----------
metric: melting point

Prompt: Requested field: melting point. Item: "O=c1[nH]c2ccc([C@H]3CC[C@H](NCCCc4ccccc4)CC3)cc2o1"
Response: 166 to 170 °C

Prompt: Follow-up entry: "CCCn1c(-n2nc(-c3c(-c4ccccc4)nn4ccccc34)ccc2=O)cc(=O)n(CCC)c1=O"
Response: 155 °C

Prompt: Follow-up entry: "C=CC(=O)Nc1ccc(C(=O)C[N+](=O)[O-])c(Cl)c1"
Response: 140 to 144 °C

Prompt: Follow-up entry: "C#CCS(=O)(=O)c1ccc(NC(C)=O)cc1"
Response: 175 to 179 °C

Prompt: Follow-up entry: "COC(=O)c1cc(C)cc(C(C)(C)C#N)c1"
Response: 53.8 to 55.9 °C

Prompt: Follow-up entry: "CS(=O)(=O)NCCN1CCC(CO)CC1"
Response: 81 to 82 °C

Prompt: Follow-up entry: COc1cc2c(c3c1OC(C)(C)C3)C(c1cccc(NC(=O)CS(C)=O)c1)=NC(C)(C)C2 (stereo unspecified)
Response: 198 to 201 °C

Prompt: Follow-up entry: "Cn1ncc(C(=O)N2CCC2)c1C(=O)Nc1ccn2nc(-c3ccnc(F)c3)nc2c1"
Response: > 280 °C

Prompt: Follow-up entry: "COCc1nc2c(OC)ccc(C(=O)Nc3c(Cl)cncc3Cl)c2[nH]1"
Response: 230 to 231 °C

Prompt: Follow-up entry: "COC(=O)c1cc(N2C(=O)C3=C(CCCC3)C2=O)ccc1Cl"
Response: 113 to 115 °C

Prompt: Follow-up entry: O=C1CCC2=C1C(c1cccc([N+](=O)[O-])c1)C1=C(CCCS1)N2 (stereo unspecified)
Response: > 260 °C

Prompt: Follow-up entry: "CCOC(=O)C=C(C)NC(=O)Nc1cc(OC(C)C)c(Cl)cc1F"
Response: 142 to 144 °C

Prompt: Follow-up entry: "COc1cc2c(C3=CCNCC3)c[nH]c2cc1Cl"
Response: 222 to 224 °C

Prompt: Follow-up entry: "Cn1c2ccc(Br)cc2c2cc(C(=O)N3CCOCC3)sc21"
Response: 184 °C

Prompt: Follow-up entry: "O=C(Nc1ccccc1)c1cccc([N+](=O)[O-])c1"
Response: 153 to 154 °C

Prompt: Follow-up entry: "O=[N+]([O-])c1cccc(/C=C/c2csc(C3CCC3)n2)c1"
Response: 112 to 115 °C

----------
Kindly state melting point for each of the entries shown.

Prompt: Requested field: melting point. Item: "CN1Cc2c(C(=O)OC(C)(C)C)ncn2-c2cccc(Br)c2C1=O"
Response: 207 to 208 °C

Prompt: Follow-up entry: "Cc1c(C(=O)Nc2ccc(OCCN3CCOCC3)c(C#N)c2)cnn1-c1ccc(Cl)cc1"
Response: 187 to 189 °C

Prompt: Follow-up entry: "COC(=O)/C(=C/C=C/c1cc2cc(OC)ccc2[nH]1)OC"
Response: 150 to 151 °C

Prompt: Follow-up entry: "COc1c(C=Cc2ccc(C=CC3=C(C#N)C(=C(C#N)C#N)OC3(C)C)s2)cc2c3c1CCCN3CCC2"
Response: 201 to 204 °C

Prompt: Follow-up entry: "Clc1ccc(-c2cc(C3CCN(Cc4cccc(Cl)c4)CC3)n[nH]2)cc1"
Response: 134 to 136 °C

Prompt: Follow-up entry: "CCOC(=O)c1c(Cl)c2cc(F)cnc2[nH]c1=O"
Response: 217 °C

Prompt: Follow-up entry: "Cc1c(CC(=O)O)c2cc(O)ccc2n1C(=O)c1ccccc1"
Response: 186 to 188 °C

Prompt: Follow-up entry: "CCOC(=O)c1cn(-c2ccc(F)cc2)c2cc(C#C[Si](C)(C)C)ccc2c1=O"
Response: 247 to 249 °C

Prompt: Follow-up entry: CC1Cc2cc(Cl)ccc2C(c2ccc([N+](=O)[O-])cc2)=NN1 (centres undefined)
Response: 152 to 154 °C

----------
Kindly state melting point for each of the entries shown.

Prompt: Requested field: melting point. Item: "CN(C)C1CCN(c2nc(N3CCOCC3)c3ncnc(N(CCCN)Cc4ccccc4)c3n2)CC1"
Response: 102 to 105 °C

Prompt: Follow-up entry: "COc1ccc(-c2cc(C=O)cc3ccoc23)cc1"
Response: 79 to 80 °C

Prompt: Follow-up entry: "CN1c2cscc2C(=O)N(CCN2CCCCC2)c2ccccc21"
Response: 84 to 88 °C

Prompt: Follow-up entry: "CCCCOC(=O)c1nn(-c2ccc(I)cc2)c(C)cc1=O"
Response: 134 to 137 °C

Prompt: Follow-up entry: "CN(CC(C)(C)NCc1c(CO)ccc(OCc2ccccc2)c1CO)c1ccccc1"
Response: 93 to 98 °C

Prompt: Follow-up entry: "CC(C)NC(=O)Nc1cc(-c2ccnc3c(C(=O)c4cccs4)cnn23)ccc1F"
Response: > 200 °C

Prompt: Follow-up entry: "Cc1nc(Cl)c(C)c(-c2c(C)c(N)c(C)c3nsnc23)n1"
Response: 105 to 106 °C

Prompt: Follow-up entry: "CC(=O)C(=NNc1ccc(Cl)cc1)Sc1ccc(Cl)cc1"
Response: 164 to 167 °C

Prompt: Follow-up entry: COc1ccc(C2C(C(=O)O)C2(C)C)cc1 (stereo unspecified)
Response: 115 °C

Prompt: Follow-up entry: CCC1(CCCCN2CCN(c3ccccn3)CC2)C(=O)Nc2ccc(F)cc21 (stereo unspecified)
Response: 144 to 147 °C

Prompt: Follow-up entry: Cc1cc(C)c(C2C(=O)CC(c3ccccc3)CC2=O)c(C)c1 (stereo unspecified)
Response: 215 to 216 °C

----------
metric: melting point

Prompt: Requested field: melting point. Item: "Cn1nc(Cl)cc(Nc2ccncn2)c1=O"
Response: 233 to 235 °C

Prompt: Follow-up entry: C=CCOc1ccccc1C1C=NNC(=O)C1 (centres undefined)
Response: 93 to 95 °C

Prompt: Follow-up entry: "C(#Cc1ccccn1)CCc1nc2ccccc2s1"
Response: 98.5 to 99.4 °C

Prompt: Follow-up entry: "COc1ccc(N2CCN(c3ccc(N4C(=O)NC(C)(C)C4=O)cc3)CC2)cc1"
Response: 255 °C

----------
Kindly state melting point for each of the entries shown.

Prompt: Requested field: melting point. Item: "CCC(=O)Cn1c(C)cn(N=Cc2cccnc2)c1=O"
Response: 183 to 184 °C

Prompt: Follow-up entry: "CC(=O)Oc1ccc2scc(C(=O)O)c2c1"
Response: 239 to 240 °C

Prompt: Follow-up entry: "CCOC(=O)c1nc(-c2ccc(C(C)(C)C)cc2)[nH]c1-c1ccc([N+](=O)[O-])cc1"
Response: 190 to 191 °C

Prompt: Follow-up entry: "O=C1CCc2ccccc2CN1CO"
Response: 109 to 110 °C

Prompt: Follow-up entry: "CCOC(=O)c1cnc2c(cnn2CC)c1Cl"
Response: 55 to 60 °C

Prompt: Follow-up entry: "O=C(N[C@H]1CCN(C(=O)c2cc(C(F)(F)F)cc(C(F)(F)F)c2)[C@H](Cc2ccc(Cl)cc2)C1)c1cc(O)nc2ccccc12"
Response: 222 to 224 °C

Prompt: Follow-up entry: "COc1ccc2c(c1)C(=O)c1cc(CC(=O)O)ccc1SC2"
Response: 155 to 157 °C

Prompt: Follow-up entry: "CC(=CC#N)CCN1C(=O)c2ccccc2S1(=O)=O"
Response: 117 to 118 °C

Prompt: Follow-up entry: "CCOC(=O)c1ncc2[nH]c3ccc(S(=O)(=O)N(C)C)cc3c2c1COC"
Response: 191 to 193 °C

Prompt: Follow-up entry: COC(=O)C=C(C)C=CC1(O)C(C)=CC(=O)c2ccccc21 (stereo unspecified)
Response: 147 to 148 °C

Prompt: Follow-up entry: CCCCCCS(=O)C1CC(=O)N1CC(=O)CCc1ccccc1 (stereo unspecified)
Response: 154 to 155 °C

Prompt: Follow-up entry: "O=C(c1ccccc1)N1CCc2[nH]c3cccc(-c4ccccc4F)c3c2CC1"
Response: 241 to 244 °C

Prompt: Follow-up entry: "FC(F)(F)c1ccc2sc(C3=CCN(Cc4ccccc4)CC3)nc2c1"
Response: 124 to 125 °C

Prompt: Follow-up entry: O=C(O)[C@H](Cc1ccc(C(F)(F)F)cc1)[C@@H](O)c1cccc(F)c1 (racemic)
Response: 128 to 129 °C

Prompt: Follow-up entry: "NC(=O)[C@H]1CN(c2ccc(I)c(F)c2)C(=O)O1"
Response: 176 to 178 °C

Prompt: Follow-up entry: "FC(F)(F)c1cn2c(c1-c1ccccc1)CCC2"
Response: 154 °C

Prompt: Follow-up entry: "Nc1nc2ccccc2c2c1ncn2CCCCCC(=O)c1ccccc1"
Response: 163 to 165 °C

Prompt: Follow-up entry: "c1ccc(Oc2ccc(N3CCNCC3)nc2)cc1"
Response: 80.5 to 83 °C

Prompt: Follow-up entry: C1=C2NCCCN2C(c2ccccc2)c2ccccc2C1 (stereo unspecified)
Response: 138 to 141 °C

Prompt: Follow-up entry: "COC(=O)c1ccn(C)c1S(=O)(=O)NC(C)(C)C"
Response: 105 to 108 °C

Prompt: Follow-up entry: "COc1ccc(CSCC(=O)NO)cc1"
Response: 107 °C

Prompt: Follow-up entry: "CC(C)(O)c1ccc(CNC(=O)c2cccnc2Oc2ccc3ncsc3c2)cc1"
Response: 195 to 197 °C

Prompt: Follow-up entry: "N#Cc1cc(F)ccc1N1CCNCC1"
Response: 83 to 83.5 °C

Prompt: Follow-up entry: "CCCN1CC(c2ccc(S(C)(=O)=O)cc2)=C(Oc2ccccc2)C1=O"
Response: 163 to 165 °C

Prompt: Follow-up entry: "Cn1cc(Br)cc(Nc2ccc(C3CNC3)cn2)c1=O"
Response: 123 to 124 °C

Prompt: Follow-up entry: "COc1nc2nc(S(=O)(=O)Cl)nn2cc1C"
Response: 154 to 157 °C

Prompt: Follow-up entry: CN1C(=O)C(F)N=C(c2ccccc2F)c2cc(Cl)ccc21 (stereo unspecified)
Response: 91 to 95 °C

Prompt: Follow-up entry: "CCc1c(C)nc2c(C)cccn2c1=O"
Response: 90 to 92 °C

Prompt: Follow-up entry: "CCOC(=O)c1ccc2c(cnn2CCC#N)c1"
Response: 106 to 109 °C

Prompt: Follow-up entry: "O=C(O)c1ccc(C(=O)O)c2c(C(O)=Nc3ccccc3)ccc(C(=O)O)c12"
Response: > 300 °C

Prompt: Follow-up entry: "COc1ccc(C)cc1NC(=O)Nc1ccc(N2CCN(C(=O)Nc3c(CO)cccc3C(F)(F)F)CC2)cc1"
Response: 139 to 140 °C
